Target: biotinylated recombinant human CLL-1 extracellular domain protein, isoform with glutamine at amino acid position 244 (human) (UniProt Q5QGZ9)
Sequence (Q5QGZ9 65-265): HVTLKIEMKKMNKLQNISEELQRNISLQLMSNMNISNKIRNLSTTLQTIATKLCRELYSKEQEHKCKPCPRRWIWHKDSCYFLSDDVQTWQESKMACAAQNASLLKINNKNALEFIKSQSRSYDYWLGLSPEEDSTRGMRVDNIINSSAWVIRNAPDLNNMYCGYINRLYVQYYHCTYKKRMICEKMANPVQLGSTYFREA
Test: BLItz, 1:1 model (Q244 per FIG. 12B)
measured parameter: koff (s⁻¹)
Kindly answer with a numeric value in s⁻¹, unit omitted.

Illustrative cases are given below, each with its answer.
[[record]]
binder = "Anti-CLL-1 Binder Clone 38 (scFv, not shown: small tags and cut ends) scFv: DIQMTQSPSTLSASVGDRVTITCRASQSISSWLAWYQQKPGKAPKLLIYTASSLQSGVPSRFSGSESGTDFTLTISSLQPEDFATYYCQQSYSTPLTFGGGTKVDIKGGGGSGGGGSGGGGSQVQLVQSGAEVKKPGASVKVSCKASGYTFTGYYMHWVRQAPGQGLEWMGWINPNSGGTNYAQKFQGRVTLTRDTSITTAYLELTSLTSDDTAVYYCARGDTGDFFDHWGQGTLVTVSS"
val = 0.00097

[[record]]
binder = "Anti-CLL-1 Binder Clone 41 (scFv, not shown: small tags and cut ends) scFv: QSVLTQPASVSGSLGQSITISCTGTSRDVGGYNFVSWYQQHPGKAPKLIIFDVTTRPSGLSDRFSASKSGNTASLTISGLQAEDEADYFCGSYTASDTMLFGGGTKLTVLGGGGSGGGGSGGGGSQVQLLESGGGVVQPGRSLRLSCAASGFTFDDYAMHWVRQAPGKGLEWVSGISWNSGSIGYADSVKGRFTVSRDNSKNTLYQQMNGLRAEDTAVYYCAREGRPTAFDYWGQGTTVTVSS"
val = 0.032

[[record]]
binder = "Anti-CLL-1 Binder Clone 10 (scFv, not shown: small tags and cut ends) scFv: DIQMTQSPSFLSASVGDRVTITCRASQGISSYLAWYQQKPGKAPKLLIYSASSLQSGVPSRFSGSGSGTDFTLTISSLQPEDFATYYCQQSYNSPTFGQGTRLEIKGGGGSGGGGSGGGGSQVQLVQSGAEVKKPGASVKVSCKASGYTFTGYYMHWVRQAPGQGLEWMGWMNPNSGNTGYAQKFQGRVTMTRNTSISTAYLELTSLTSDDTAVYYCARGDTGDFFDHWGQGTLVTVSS"
val = 0.0013

[[record]]
binder = "Anti-CLL-1 Binder Clone 11 (scFv, not shown: small tags and cut ends) scFv: QSVLTQPASVSGSPGQSITISCTGTSSDVGASNSVSWYQRHPGKPPKLMIYDVSNRPSGISNRFSGSKSGNTASLTISGLQSEDEADYYCSSYTGSSTFVVFGGGTQLIILGGGGSGGGGSGGGGSEVQLVESGGGVVQPGGSLRLSCAASGFTFSSYWMSWVRQAPGKGLEWVANIRQDGSEKYYVDSVKGRFTISRDNAKNSLYLQMNSLRAEDAAVYYCAREQDTAMVAFDYWGQGTLVTVSS"
val = 0.0023

[[record]]
binder = "Anti-CLL-1 Binder Clone 40 (scFv, not shown: small tags and cut ends) scFv: QSVLTQPPSVSAAPGQKVTISCSGSSSNIGNNYVSWYQQLPGTAPKLLIYDNNKRPSGIPDRFSGSESGTSATLGITGLQTGDEADYYCGTWDSSLSAWVFGGGTQLIILGGGGSGGGGSGGGGSQVQLQQSGPGLVKPSQTLSLTCAISGDSVSSNSAAWNWIRQSPSRGLEWLGRTHYRSKWYNDYAVSVKSRITISADTSKNQFSLQLNSVTPEDTAVYYCARDRYTVRPDAFDIWGQGTTVTVSS"
val = 0.00081


Note: attention shifts to another entry.
[Q] // lookup koff for Anti-CLL-1 Binder Clone 12 (scFv, not shown: small tags and cut ends) scFv: DIQMTQSPSSLSASVGDRVTITCQASQDISNYLNWYQQKPGKAPKLLIYDASNLETGVPSRFSGSGSGTDFTLTISSPQPEDLATYYCQQANSFPFTFGQGTKVEIKGGGGSGGGGSGGGGSQVQLVQSGAEVKKPGSSVKVSCKASGYSFTRNDITWVRQANGRGLEWLGRLNPNNGDTVYAEVFQGRVAMTRDTSTDTAYMELASLKSDDTAVYFCARGFWSFDVWGQGTMVTVSS
[A] 0.0034
